// values below are reported deltaG
# measured-target: UniProt:O60674
# condition-set: dose 30-200 µM
assay-endpoint: deltaG (kcal/mol)

1. N#CCNC(=O)c1ccc(-c2ccnc(Nc3ccc(N4CCOCC4)cc3)n2)cc1; -11.3
2. CCS(=O)(=O)N1CCN(c2ccc(Nc3ncc(C(N)=O)c(NC4CC4)n3)cc2)CC1; -10.8
3. C1=N/C2=N/c3ccc(OCCN4CCCC4)c(c3)COC/C=C/COCc3cccc(c3)C(=C1)N2; -10.9
4. N#CCC1(n2cc(-c3ncnc4[nH]ccc34)cn2)CN(C2CCN(C(=O)c3ccnc(C(F)(F)F)c3F)CC2)C1; -10.7
5. C[C@H](Nc1cc(-c2cnn(C)c2)cc(Nc2cnccn2)n1)c1ccc(F)cc1; -11.3

* * *

# measured-target: Tyrosine-protein kinase JAK3 (Homo sapiens, UniProt P52333)
# Sequence (P52333 whole entry, the tested form may be a part): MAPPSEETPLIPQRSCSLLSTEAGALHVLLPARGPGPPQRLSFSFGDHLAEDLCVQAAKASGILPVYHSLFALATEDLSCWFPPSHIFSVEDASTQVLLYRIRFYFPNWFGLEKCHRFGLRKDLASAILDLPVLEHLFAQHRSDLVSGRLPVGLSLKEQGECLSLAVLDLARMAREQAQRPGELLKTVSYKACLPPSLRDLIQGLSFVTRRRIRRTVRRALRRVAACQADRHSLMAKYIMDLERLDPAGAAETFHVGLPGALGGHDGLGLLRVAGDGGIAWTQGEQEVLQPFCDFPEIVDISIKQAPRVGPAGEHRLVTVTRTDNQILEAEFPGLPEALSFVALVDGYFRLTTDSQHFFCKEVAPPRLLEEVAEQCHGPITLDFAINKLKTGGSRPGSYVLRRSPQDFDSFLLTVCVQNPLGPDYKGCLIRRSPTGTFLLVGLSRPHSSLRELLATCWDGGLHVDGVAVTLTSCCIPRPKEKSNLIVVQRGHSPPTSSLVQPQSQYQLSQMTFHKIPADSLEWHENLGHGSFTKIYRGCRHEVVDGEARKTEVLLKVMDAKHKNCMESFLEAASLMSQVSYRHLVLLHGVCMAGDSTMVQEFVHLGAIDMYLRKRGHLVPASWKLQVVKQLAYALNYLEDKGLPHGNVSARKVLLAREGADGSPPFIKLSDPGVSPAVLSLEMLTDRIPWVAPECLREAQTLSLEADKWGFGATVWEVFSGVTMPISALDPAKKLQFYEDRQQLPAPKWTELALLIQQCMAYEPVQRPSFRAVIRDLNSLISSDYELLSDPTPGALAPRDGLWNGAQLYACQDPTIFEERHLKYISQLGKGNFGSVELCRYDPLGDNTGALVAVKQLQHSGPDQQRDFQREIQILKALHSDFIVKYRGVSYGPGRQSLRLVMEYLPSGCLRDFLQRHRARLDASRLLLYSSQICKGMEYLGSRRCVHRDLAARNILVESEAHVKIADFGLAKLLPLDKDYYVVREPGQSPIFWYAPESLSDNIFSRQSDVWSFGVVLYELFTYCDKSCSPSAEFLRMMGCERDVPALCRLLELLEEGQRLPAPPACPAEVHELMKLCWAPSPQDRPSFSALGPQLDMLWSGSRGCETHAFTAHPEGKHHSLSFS
# assay-name: Inhibition of recombinant human JAK3 assessed as inhibition of substrate phosphorylation measured every 5 mins for 30 mins by LANCE Ultra kinase assay
assay-endpoint: IC50

1. C[C@H](Nc1cc(-c2cnn(C)c2)cc(Nc2cnccn2)n1)c1ccc(F)cc1; 182 nM
2. N#CCC1(n2cc(-c3ncnc4[nH]ccc34)cn2)CN(C2CCN(C(=O)c3ccnc(C(F)(F)F)c3F)CC2)C1; 10800 nM
3. Cc1cc(Nc2cc(CN3CCOCC3)c3nc(C)c(Cc4ccc(Cl)cc4F)n3n2)n[nH]1; 199 nM

* * *

# measured-target: Tyrosine-protein kinase JAK3 (Homo sapiens, UniProt P52333)
# assay-name: Binding affinity to recombinant human JAK3 kinase domain by fluorescence polarization assay
assay-endpoint: Kd (nM)

1) Cc1cc(Nc2cc(CN3CCOCC3)c3nc(C)c(Cc4ccc(Cl)cc4F)n3n2)n[nH]1 [GANDOTINIB]; 13
2) N#CCC1(n2cc(-c3ncnc4[nH]ccc34)cn2)CN(C2CCN(C(=O)c3ccnc(C(F)(F)F)c3F)CC2)C1 [ITACITINIB]; 324
3) C[C@H](Nc1cc(-c2cnn(C)c2)cc(Nc2cnccn2)n1)c1ccc(F)cc1 [NS-018]; 19

* * *

# measured-target: Tyrosine-protein kinase JAK1 (Homo sapiens)
# Sequence (P23458 whole entry): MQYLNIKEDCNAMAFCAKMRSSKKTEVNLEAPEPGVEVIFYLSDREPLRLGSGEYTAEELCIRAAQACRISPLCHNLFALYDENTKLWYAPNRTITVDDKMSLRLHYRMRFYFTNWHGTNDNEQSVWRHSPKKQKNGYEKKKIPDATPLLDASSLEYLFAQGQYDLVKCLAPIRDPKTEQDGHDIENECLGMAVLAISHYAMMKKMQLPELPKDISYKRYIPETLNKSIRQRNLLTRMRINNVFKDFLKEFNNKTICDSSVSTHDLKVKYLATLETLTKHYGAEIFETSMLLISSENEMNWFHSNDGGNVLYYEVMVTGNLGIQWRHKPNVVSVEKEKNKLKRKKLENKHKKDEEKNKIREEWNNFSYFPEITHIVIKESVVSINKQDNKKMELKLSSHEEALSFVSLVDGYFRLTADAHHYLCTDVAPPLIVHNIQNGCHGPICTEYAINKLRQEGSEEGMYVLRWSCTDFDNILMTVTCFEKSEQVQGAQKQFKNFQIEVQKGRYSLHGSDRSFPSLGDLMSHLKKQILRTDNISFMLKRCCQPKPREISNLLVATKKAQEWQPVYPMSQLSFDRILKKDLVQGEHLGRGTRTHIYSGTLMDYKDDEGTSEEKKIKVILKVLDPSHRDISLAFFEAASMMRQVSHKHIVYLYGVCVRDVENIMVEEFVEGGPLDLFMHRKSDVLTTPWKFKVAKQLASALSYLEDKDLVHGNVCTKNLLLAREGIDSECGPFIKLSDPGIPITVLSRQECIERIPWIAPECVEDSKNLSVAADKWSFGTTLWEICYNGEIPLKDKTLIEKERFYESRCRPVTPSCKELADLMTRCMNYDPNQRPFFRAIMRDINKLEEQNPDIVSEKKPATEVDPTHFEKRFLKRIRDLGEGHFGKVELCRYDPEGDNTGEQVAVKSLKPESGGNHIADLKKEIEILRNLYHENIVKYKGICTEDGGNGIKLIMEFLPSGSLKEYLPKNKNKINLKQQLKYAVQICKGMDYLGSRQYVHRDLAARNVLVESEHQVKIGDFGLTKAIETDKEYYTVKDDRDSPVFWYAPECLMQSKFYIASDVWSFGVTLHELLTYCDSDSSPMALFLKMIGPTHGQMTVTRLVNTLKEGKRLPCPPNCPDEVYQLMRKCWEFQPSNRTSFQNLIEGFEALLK
# assay-name: Inhibition of recombinant human JAK1 assessed as inhibition of substrate phosphorylation measured every 5 mins for 30 mins by LANCE Ultra kinase assay
pIC50: −log10 of the molar value.
Label NOT MET if pIC50 falls below 8; label MET in every other case.

1. C1=C/COCc2cc(ccc2OCCN2CCCC2)Nc2nccc(n2)-c2cccc(c2)COC/1; NOT MET
2. O=C(Nc1c[nH]nc1-c1nc2cc(CN3CCOCC3)ccc2[nH]1)NC1CC1; NOT MET
3. CCS(=O)(=O)N1CCN(c2ccc(Nc3ncc(C(N)=O)c(NC4CC4)n3)cc2)CC1; NOT MET
4. N#CCC1(n2cc(-c3ncnc4[nH]ccc34)cn2)CN(C2CCN(C(=O)c3ccnc(C(F)(F)F)c3F)CC2)C1; MET

* * *

# measured-target: Tyrosine-protein kinase JAK2 (Homo sapiens)
# Sequence (O60674 whole entry): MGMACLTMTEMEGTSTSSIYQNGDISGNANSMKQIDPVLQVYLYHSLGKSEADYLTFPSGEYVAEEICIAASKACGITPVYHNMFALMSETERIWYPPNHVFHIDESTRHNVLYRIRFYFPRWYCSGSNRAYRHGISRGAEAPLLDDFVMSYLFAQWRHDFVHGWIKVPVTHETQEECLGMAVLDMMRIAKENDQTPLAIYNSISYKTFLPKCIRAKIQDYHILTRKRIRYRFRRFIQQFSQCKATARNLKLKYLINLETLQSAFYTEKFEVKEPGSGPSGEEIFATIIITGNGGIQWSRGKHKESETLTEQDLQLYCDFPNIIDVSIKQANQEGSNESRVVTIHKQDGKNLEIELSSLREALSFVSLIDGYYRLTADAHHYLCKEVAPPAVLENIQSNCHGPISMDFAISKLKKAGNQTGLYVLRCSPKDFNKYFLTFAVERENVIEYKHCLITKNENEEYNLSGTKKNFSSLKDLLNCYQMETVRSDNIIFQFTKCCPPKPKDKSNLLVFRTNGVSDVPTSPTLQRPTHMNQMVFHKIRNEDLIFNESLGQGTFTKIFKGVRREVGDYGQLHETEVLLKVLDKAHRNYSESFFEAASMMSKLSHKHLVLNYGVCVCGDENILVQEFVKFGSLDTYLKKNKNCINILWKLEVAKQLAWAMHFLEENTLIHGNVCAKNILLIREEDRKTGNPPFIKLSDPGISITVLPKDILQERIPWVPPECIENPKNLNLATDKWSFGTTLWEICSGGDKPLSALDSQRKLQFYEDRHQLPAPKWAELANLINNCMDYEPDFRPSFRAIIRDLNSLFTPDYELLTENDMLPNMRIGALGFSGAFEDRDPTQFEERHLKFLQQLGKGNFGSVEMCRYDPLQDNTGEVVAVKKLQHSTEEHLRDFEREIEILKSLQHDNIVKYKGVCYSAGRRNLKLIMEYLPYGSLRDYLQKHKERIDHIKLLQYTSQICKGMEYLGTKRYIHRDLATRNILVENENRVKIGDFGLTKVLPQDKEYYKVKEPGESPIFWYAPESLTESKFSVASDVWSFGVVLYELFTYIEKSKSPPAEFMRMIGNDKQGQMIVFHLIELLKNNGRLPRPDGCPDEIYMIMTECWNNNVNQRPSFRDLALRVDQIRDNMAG
# condition-set: dose 30-200 µM
// values below are reported -TdeltaS
assay-endpoint: -TdeltaS (kcal/mol)

1) N#CCNC(=O)c1ccc(-c2ccnc(Nc3ccc(N4CCOCC4)cc3)n2)cc1; 3.2
2) CCS(=O)(=O)N1CCN(c2ccc(Nc3ncc(C(N)=O)c(NC4CC4)n3)cc2)CC1; -0.4
3) C1=N/C2=N/c3ccc(OCCN4CCCC4)c(c3)COC/C=C/COCc3cccc(c3)C(=C1)N2; -3.3
4) N#CCC1(n2cc(-c3ncnc4[nH]ccc34)cn2)CN(C2CCN(C(=O)c3ccnc(C(F)(F)F)c3F)CC2)C1; -5.4
5) C[C@H](Nc1cc(-c2cnn(C)c2)cc(Nc2cnccn2)n1)c1ccc(F)cc1; 1.2

Values compiled from ChEMBL document CHEMBL5500392.
